Target: Transthyretin (Homo sapiens)
Assay: Stabilization of urea-induced transthyretin dissociation at 5.4 uM at pH 7.2 after […] relative to control
propertyLabel: Activity

Here's what some known entries look like.
mol	testedSystem	propertyLabel	testResult
COc1cc(CCl)ccc1Oc1ccc(Cl)cc1Cl	Transthyretin (Homo sapiens)	Activity	< 5%
COc1cc(C=O)ccc1Oc1ccccc1	Transthyretin (Homo sapiens)	Activity	< 5%

Let us move to another entry and its Activity.
Query: I would be grateful if you could share the reported Activity for `O=C(O)c1ccc(Oc2ccccc2)c(O)c1` .
Result: < 5%

* * *

Biological target: UniProt:P02766
Experiment: Inhibition of transthyretin fibril formation at pH 4.4 at 100 uM
Format: functional
The following compounds are shown together with reported inhibition values.
# number only, unit % dropped from output

Study these solved cases before continuing.
compound	testedSystem	testResult
CCOc1cccc2c1OC(c1cccc(Cl)c1)N1N=C(c3cccs3)CC21 (centres undefined)	UniProt:P02766	0
Cn1c(=O)c2c(nc(Oc3ccc(-n4cnnn4)cc3)n2C)n(C)c1=O	UniProt:P02766	0
O=C(NC(c1ccccc1)c1cc(Cl)c2cccnc2c1O)c1cccnc1 (centres undefined)	UniProt:P02766	70.4

Query: What value of measured inhibition is listed for `Cc1ccn2c(Nc3ccccc3C)c(-c3ccc(O)cc3)nc2c1` ?
Result: 0

Query: I would be grateful if you could share the reported inhibition for `Cc1ccc(/C=c2/sc3nc4ccccc4n3c2=O)cc1` .
Result: 0

Query: What value of inhibition has been recorded for this entry: O=C(O)C1CSC(c2ccc([N+](=O)[O-])cc2)N1 (centres undefined)
Result: 0

Query: Field request: inhibition | item: O=C(Nc1c2c(nn1-c1ccc(F)cc1)C[S+]([O-])C2)c1ccccc1F (centres undefined)
Result: 0

Query: Query (compound): `Cc1ccn2c(Nc3ccc(F)cc3)c(-c3ccccn3)nc2c1` ; field requested: inhibition
Result: 0

Query: Bench note: what inhibition did O=C(O)C1CSC(c2c(F)cccc2Cl)N1 (centres undefined) show?
Result: 79.7

Query: What does the record list as inhibition for `O=C(O)c1cccc(-c2ccc(/C=C3/SC(=S)N(c4cccc(C(F)(F)F)c4)C3=O)o2)c1` ?
Result: 0

Query: Endpoint output: inhibition of COc1ccc(C2NC(C(=O)O)CS2)cc1OC (centres undefined) . Value?
Result: 0

Query: Bench note: what inhibition did CCC(=O)NC(c1ccc2c(c1)OCO2)c1cc(Cl)c2cccnc2c1O (centres undefined) show?
Result: 58.1

Query: Any idea what inhibition was measured for `O=C1NC(=S)S/C1=C\c1ccc(-c2cc(Cl)ccc2Cl)o1` ?
Result: 0

Query: Consider the compound shown here: `CSC1=NSC2=NC(=O)/C(=C\c3ccc(O)cc3)C(=N)N12` What is its recorded inhibition?
Result: 27.3

Query: Please report the recorded inhibition for `O=C1OC(c2ccc(Cl)cc2Cl)=N/C1=C\c1cccs1` .
Result: 0

* * *

Target: Transthyretin (Homo sapiens, UniProt P02766)
Experiment: Inhibition of transthyretin amyloidosis assessed as fibril formation pH 4.4 at 100 uM
Type: functional
Label key: Met means percent fibril formation relative to control under 70%; Not met means percent fibril formation relative to control of 70% or more.

Solved cases below.
compound	testedSystem	labelValue
O=C(O)C1CSC(c2ccc(Cl)c(Cl)c2)N1 (centres undefined)	Transthyretin (Homo sapiens, UniProt P02766)	Not met
O=C(Nc1nnc[nH]1)c1c(Cl)ccc(Cl)c1Cl	Transthyretin (Homo sapiens, UniProt P02766)	Met
Cc1nc2c(ccc3ccccc32)c(O)c1CN(C)Cc1ccccc1	Transthyretin (Homo sapiens, UniProt P02766)	Not met
Nc1cc(O)nc(SCC(=O)N2CCOCC2)n1	Transthyretin (Homo sapiens, UniProt P02766)	Not met
COc1cccc(C(=O)NC(c2ccccc2)c2cc(Cl)c3cccnc3c2O)c1 (centres undefined)	Transthyretin (Homo sapiens, UniProt P02766)	Met

Query: Dear reviewer, please state whether `FC(F)(F)c1cccc(NC(=S)N(CCCN2CCCCC2)Cc2cccs2)c1` has percent fibril formation relative to control strictly beneath 70%.
Result: Not met

Query: Is percent fibril formation relative to control of `CCc1ccccc1NC(=S)N(CCN(C)C)Cc1cccs1` strictly below 70%?
Result: Not met

Query: Regarding O=C(O)C1CSC(c2ccc(Cl)cc2Cl)N1 (centres undefined) , kindly confirm whether its percent fibril formation relative to control is beneath 70%.
Result: Met

Query: hey, is percent fibril formation relative to control for `CSC1=NSC2=NC(=O)/C(=C\c3ccc(Cl)cc3)C(=N)N12` lower than 70% or not?
Result: Met

Query: Input COc1cc(C2NC(C(=O)O)CS2)ccc1O (centres undefined) ; condition: percent fibril formation relative to control strictly below 70%. Does it hold?
Result: Not met

Query: Is percent fibril formation relative to control strictly under 70% for the entry `O=C1/C(=C\c2cccc(O)c2)SC(=S)N1c1ccc(F)cc1` ?
Result: Not met
